System: Escherichia coli TOP10
Assay: shrunken log2 fold change of peptide-encoding DNA abundance (4.5 h post-induction vs induction); higher = less antimicrobial activity (less host growth inhibition)
Settings: time post-induction: 4.5 h; library: site-saturation at positions 5, 18, 19, 20
readoutKind: shrunken log2 fold change

The following sequences have reported results that may help.
Q. Looking for the measured shrunken log2 fold change of "RRIRLRPPRLPRPRPRPPFEPRP" , can you help?
A. 0.182

Q. Looking for the measured shrunken log2 fold change of "RRIRFRPPRLPRPRPRPDAQPRP" , can you help?
A. 0.483

Q. Looking for the measured shrunken log2 fold change of "RRIRDRPPRLPRPRPRPVNPPRP" , can you help?
A. 0.342

Q. Looking for the measured shrunken log2 fold change of "RRIRLRPPRLPRPRPRPNWEPRP" , can you help?
A. -0.111

Q. Looking for the measured shrunken log2 fold change of "RRIRVRPPRLPRPRPRPCAQPRP" , can you help?
A. -0.186

New cases:
Q. Looking for the measured shrunken log2 fold change of "RRIRVRPPRLPRPRPRPVSGPRP" , can you help?
A. 0.0836

Q. Looking for the measured shrunken log2 fold change of "RRIRRRPPRLPRPRPRPFYVPRP" , can you help?
A. -0.0483

Q. Looking for the measured shrunken log2 fold change of "RRIRSRPPRLPRPRPRPQLVPRP" , can you help?
A. 0.0331

Q. Looking for the measured shrunken log2 fold change of "RRIRHRPPRLPRPRPRPDSLPRP" , can you help?
A. -0.0392

Q. Looking for the measured shrunken log2 fold change of "RRIRIRPPRLPRPRPRPFQDPRP" , can you help?
A. 0.0408

Q. Looking for the measured shrunken log2 fold change of "RRIRGRPPRLPRPRPRPSGPPRP" , can you help?
A. -0.0342

Q. Looking for the measured shrunken log2 fold change of "RRIRFRPPRLPRPRPRPMRRPRP" , can you help?
A. 0.542

Q. Looking for the measured shrunken log2 fold change of "RRIRTRPPRLPRPRPRPKCRPRP" , can you help?
A. 0.0762

Q. Looking for the measured shrunken log2 fold change of "RRIRDRPPRLPRPRPRPIYEPRP" , can you help?
A. 0.0032

Q. Looking for the measured shrunken log2 fold change of "RRIRQRPPRLPRPRPRPCGYPRP" , can you help?
A. -0.0698

----------
System: Escherichia coli TOP10
Experiment: shrunken log2 fold change of peptide-encoding DNA abundance (4.5 h post-induction vs induction); higher = less antimicrobial activity (less host growth inhibition)
Details: time post-induction: 4.5 h; library: site-saturation at positions 5, 18, 19, 20
Entries and their shrunken log2 fold change

The following sequences have reported results that may help.
Q. What is its shrunken log2 fold change for Escherichia coli TOP10? Entry: "RRIRGRPPRLPRPRPRPLIFPRP"
A. 0.404

Q. What is its shrunken log2 fold change for Escherichia coli TOP10? Entry: "RRIRLRPPRLPRPRPRPMQAPRP"
A. -0.0495

Q. What is its shrunken log2 fold change for Escherichia coli TOP10? Entry: "RRIRYRPPRLPRPRPRPIFTPRP"
A. -0.212

Q. What is its shrunken log2 fold change for Escherichia coli TOP10? Entry: "RRIRCRPPRLPRPRPRPVPCPRP"
A. 0.177

Q. What is its shrunken log2 fold change for Escherichia coli TOP10? Entry: "RRIRRRPPRLPRPRPRPRCRPRP"
A. 1.57

New cases:
Q. What is its shrunken log2 fold change for Escherichia coli TOP10? Entry: "RRIRRRPPRLPRPRPRPTEAPRP"
A. 0.0804

Q. What is its shrunken log2 fold change for Escherichia coli TOP10? Entry: "RRIRDRPPRLPRPRPRPCLFPRP"
A. 0.076

Q. What is its shrunken log2 fold change for Escherichia coli TOP10? Entry: "RRIRWRPPRLPRPRPRPIKWPRP"
A. -0.18

Q. What is its shrunken log2 fold change for Escherichia coli TOP10? Entry: "RRIRKRPPRLPRPRPRPTQLPRP"
A. 0.65

Q. What is its shrunken log2 fold change for Escherichia coli TOP10? Entry: "RRIRARPPRLPRPRPRPCHTPRP"
A. 0.0762

----------
Test system: Escherichia coli TOP10
Assay: shrunken log2 fold change of peptide-encoding DNA abundance (4.5 h post-induction vs induction); higher = less antimicrobial activity (less host growth inhibition)
Details: time post-induction: 4.5 h; library: site-saturation at positions 5, 18, 19, 20
Decide by shrunken log2 fold change: equal to or exceeding -0.1 means 1, less means -1.

Q. Confirm if shrunken log2 fold change reported for the sequence "RRIRCRPPRLPRPRPRPNMIPRP" is -0.1 or above.
A. -1

New cases:
Q. Confirm if shrunken log2 fold change reported for the sequence "RRIRMRPPRLPRPRPRPEQGPRP" is -0.1 or above.
A. 1

Q. Confirm if shrunken log2 fold change reported for the sequence "RRIRYRPPRLPRPRPRPEAEPRP" is -0.1 or above.
A. 1

----------
Entries and their shrunken log2 fold change
Test system: Escherichia coli TOP10
Assay: shrunken log2 fold change of peptide-encoding DNA abundance (4.5 h post-induction vs induction); higher = less antimicrobial activity (less host growth inhibition)
Settings: time post-induction: 4.5 h; library: site-saturation at positions 5, 18, 19, 20
No unit in the answer, only the number.

Q. Looking for the measured shrunken log2 fold change of "RRIRIRPPRLPRPRPRPVQEPRP" , can you help?
A. 0.00511

Q. Looking for the measured shrunken log2 fold change of "RRIRRRPPRLPRPRPRPMNNPRP" , can you help?
A. -0.137

Q. Looking for the measured shrunken log2 fold change of "RRIRLRPPRLPRPRPRPPSDPRP" , can you help?
A. 0.432

Q. Looking for the measured shrunken log2 fold change of "RRIRFRPPRLPRPRPRPGQYPRP" , can you help?
A. -0.0815

Q. Looking for the measured shrunken log2 fold change of "RRIRGRPPRLPRPRPRPSEHPRP" , can you help?
A. 0.149

Q. Looking for the measured shrunken log2 fold change of "RRIRNRPPRLPRPRPRPDNRPRP" , can you help?
A. -0.0135

New cases:
Q. Looking for the measured shrunken log2 fold change of "RRIRFRPPRLPRPRPRPCFMPRP" , can you help?
A. -0.213

Q. Looking for the measured shrunken log2 fold change of "RRIRLRPPRLPRPRPRPTNPPRP" , can you help?
A. -0.348

Q. Looking for the measured shrunken log2 fold change of "RRIRERPPRLPRPRPRPVLLPRP" , can you help?
A. -0.388

Q. Looking for the measured shrunken log2 fold change of "RRIRRRPPRLPRPRPRPLWFPRP" , can you help?
A. 0.396

Q. Looking for the measured shrunken log2 fold change of "RRIRRRPPRLPRPRPRPVQVPRP" , can you help?
A. 0.189

----------
System: Escherichia coli TOP10
Assay: shrunken log2 fold change of peptide-encoding DNA abundance (4.5 h post-induction vs induction); higher = less antimicrobial activity (less host growth inhibition)
Conditions: time post-induction: 4.5 h; library: site-saturation at positions 5, 18, 19, 20
Entries and their shrunken log2 fold change
No unit in the answer, only the number.

Q. Looking for the measured shrunken log2 fold change of "RRIRYRPPRLPRPRPRPVWMPRP" , can you help?
A. -0.283

New cases:
Q. Looking for the measured shrunken log2 fold change of "RRIRKRPPRLPRPRPRPLCYPRP" , can you help?
A. -0.213

Q. Looking for the measured shrunken log2 fold change of "RRIRCRPPRLPRPRPRPYPYPRP" , can you help?
A. -0.248

Q. Looking for the measured shrunken log2 fold change of "RRIRDRPPRLPRPRPRPHPEPRP" , can you help?
A. 0.004

Q. Looking for the measured shrunken log2 fold change of "RRIRDRPPRLPRPRPRPNFVPRP" , can you help?
A. -0.0655

Q. Looking for the measured shrunken log2 fold change of "RRIRMRPPRLPRPRPRPPYPPRP" , can you help?
A. 0.134

Q. Looking for the measured shrunken log2 fold change of "RRIRHRPPRLPRPRPRPRKMPRP" , can you help?
A. -0.246

Q. Looking for the measured shrunken log2 fold change of "RRIRKRPPRLPRPRPRPCRHPRP" , can you help?
A. -0.00769

Q. Looking for the measured shrunken log2 fold change of "RRIRARPPRLPRPRPRPYYCPRP" , can you help?
A. -0.331

Q. Looking for the measured shrunken log2 fold change of "RRIRERPPRLPRPRPRPIFFPRP" , can you help?
A. 0.0602

Q. Looking for the measured shrunken log2 fold change of "RRIRDRPPRLPRPRPRPMHAPRP" , can you help?
A. 0.121

----------
Tested on: Escherichia coli TOP10;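 note: peptides expressed intracellularly from a pBAD plasmid library in pooled LB shake-flask culture, induced with 0.3% L-arabinose, DNA abundance read by NGS, three biological replicates, DESeq2 with apeglm shrinkage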
Experiment: shrunken log2 fold change of peptide-encoding DNA abundance (4.5 h post-induction vs induction); higher = less antimicrobial activity (less host growth inhibition)
Settings: time post-induction: 4.5 h; library: site-saturation at positions 5, 18, 19, 20
Entries and their shrunken log2 fold change
No unit in the answer, only the number.

Q. Looking for the measured shrunken log2 fold change of "RRIRRRPPRLPRPRPRPHMDPRP" , can you help?
A. -0.265

New cases:
Q. Looking for the measured shrunken log2 fold change of "RRIRVRPPRLPRPRPRPYVGPRP" , can you help?
A. -0.0869

Q. Looking for the measured shrunken log2 fold change of "RRIRFRPPRLPRPRPRPNNLPRP" , can you help?
A. -0.12

Q. Looking for the measured shrunken log2 fold change of "RRIRIRPPRLPRPRPRPQHDPRP" , can you help?
A. -0.0884
